Listed below: IC50 values for each entry.
- measured on: FLT3 (Homo sapiens)
- method description: TR-FRET kinase activity assay, FLT3
- Format: biochemical
- cond: ATP at Km, 60 minutes

# compound, IC50
measured = [
    ("C[C@@H](CCF)Nc1ncc2c(OC3CCOCC3)ncc([C@H]3CC[C@H](O)CC3)c2n1 [Compound 311]", "1000 to 10000 nM"),
    ("CCCC(C)Nc1ncc2c(=O)n(C3CCN(CCC(=O)N(C)C)CC3)cc([C@H]3CC[C@H](O)CC3)c2n1 (some centres unmarked) [Compound 151]", "1000 to 10000 nM"),
    ("O[C@H]1CC[C@H](c2cnc(OC3CCNCC3)c3cnc(Nc4cccc(F)c4)nc32)CC1 [Compound 270]", "≤ 100 nM"),
    ("CC1CC(Nc2ncc3c(OC4CCNCC4)ncc([C@H]4CC[C@H](O)CC4)c3n2)C1 (some centres unmarked) [Compound 167]", "≤ 100 nM"),
    ("COC[C@H](C)Nc1ncc2c(Nc3ccncc3)ncc([C@H]3CC[C@H](O)CC3)c2n1 [Compound 362]", "1000 to 10000 nM"),
]

Would you kindly look at the next entry?
Dear colleague, I am looking for the recorded IC50 of the following compound: COC[C@H](C)Nc1ncc2c(OC3CCOCC3)ncc(C3CCCCN3)c2n1 (some centres unmarked) [Compound 346]
1000 to 10000 nM

====

pIC50: −log10 of the molar value. Where a name gives a salt, the structure may show the parent alone.
FLT3 (Homo sapiens, UniProt P36888) data, read-out pIC50
Sequence (P36888 27-993): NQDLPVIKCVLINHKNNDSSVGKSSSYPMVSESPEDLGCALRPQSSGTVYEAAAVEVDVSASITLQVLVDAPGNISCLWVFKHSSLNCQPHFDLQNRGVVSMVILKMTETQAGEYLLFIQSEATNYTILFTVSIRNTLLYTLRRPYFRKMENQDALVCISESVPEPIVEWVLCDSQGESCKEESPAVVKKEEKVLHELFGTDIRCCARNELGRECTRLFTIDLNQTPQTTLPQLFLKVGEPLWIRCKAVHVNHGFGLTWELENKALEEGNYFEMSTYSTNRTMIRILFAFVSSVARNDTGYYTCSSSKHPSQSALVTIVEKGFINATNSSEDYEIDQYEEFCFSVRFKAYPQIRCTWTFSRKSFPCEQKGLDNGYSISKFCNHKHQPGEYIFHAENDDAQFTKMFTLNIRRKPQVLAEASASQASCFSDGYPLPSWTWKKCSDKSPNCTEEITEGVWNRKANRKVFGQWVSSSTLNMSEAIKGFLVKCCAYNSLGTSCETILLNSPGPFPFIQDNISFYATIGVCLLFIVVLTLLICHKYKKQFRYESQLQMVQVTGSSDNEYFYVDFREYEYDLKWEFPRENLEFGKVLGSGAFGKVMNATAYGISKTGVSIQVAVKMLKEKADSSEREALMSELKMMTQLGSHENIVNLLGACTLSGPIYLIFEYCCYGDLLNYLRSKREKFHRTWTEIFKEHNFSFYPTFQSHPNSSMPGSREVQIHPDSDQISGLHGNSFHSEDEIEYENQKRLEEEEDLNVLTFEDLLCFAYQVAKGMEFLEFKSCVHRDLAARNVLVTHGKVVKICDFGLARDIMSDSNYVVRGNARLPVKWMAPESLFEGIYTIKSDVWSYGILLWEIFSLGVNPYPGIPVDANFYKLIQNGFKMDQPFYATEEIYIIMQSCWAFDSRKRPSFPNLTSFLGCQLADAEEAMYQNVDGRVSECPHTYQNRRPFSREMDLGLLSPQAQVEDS

# compound, pIC50
measured = [
    ("CCCC(C)Nc1ncc2c(OC3CCNCC3)ncc([C@H]3CC[C@H](O)CC3)c2n1 (stereo partly drawn)", "6.00 to 7.00"),
    ("COC[C@@H](C)Nc1ncc2c(OC3CCOCC3)ncc([C@H]3CC[C@H](O)CC3)c2n1", "5.00 to 6.00"),
    ("CN1C[C@@H](Nc2ncc3c(OC4CCOCC4)ncc([C@H]4CC[C@H](O)CC4)c3n2)CC1=O", "5.00 to 6.00"),
]

Form entry - test system: FLT3 (Homo sapiens, UniProt P36888); read-out: pIC50; compound: "O[C@H]1CC[C@H](c2cnc(OC3CCNCC3)c3cnc(Nc4ccc(F)cc4)nc32)CC1"
≥ 7.00

Form entry - test system: FLT3 (Homo sapiens, UniProt P36888); read-out: pIC50; compound: CCCC(C)Nc1ncc2c(=O)n(C3CCN(C(C)=O)CC3)cc([C@H]3CC[C@H](O)CC3)c2n1 (stereo partly drawn) [Compound 128, hydrochloride]
5.00 to 6.00

Form entry - test system: FLT3 (Homo sapiens, UniProt P36888); read-out: pIC50; compound: CCCC(C)Nc1ncc2c(=O)n(CC3CCN(C)CC3)cc([C@H]3CC[C@H](O)CC3)c2n1 (stereo partly drawn)
5.00 to 6.00

Form entry - test system: FLT3 (Homo sapiens, UniProt P36888); read-out: pIC50; compound: "COC[C@H](C)Nc1ncc2c(OC3CCOCC3)ncc(-c3cnn([C@@H]4CCN(C)C4)c3)c2n1"
5.00 to 6.00

Form entry - test system: FLT3 (Homo sapiens, UniProt P36888); read-out: pIC50; compound: COC[C@H](C)Nc1ncc2c(OC3C[C@H]4CC[C@@H](C3)N4C)ncc([C@H]3CC[C@H](O)CC3)c2n1 (stereo partly drawn)
5.00 to 6.00

Form entry - test system: FLT3 (Homo sapiens, UniProt P36888); read-out: pIC50; compound: "C[C@H](Nc1ncc2c(OC3CCNCC3)ncc([C@H]3CC[C@H](O)CC3)c2n1)c1ccccc1"
5.00 to 6.00

Form entry - test system: FLT3 (Homo sapiens, UniProt P36888); read-out: pIC50; compound: "CNC(=O)Nc1ccc(-c2cnc(OC3CCOCC3)c3cnc(N[C@@H](C)COC)nc23)cc1"
5.00 to 6.00

Form entry - test system: FLT3 (Homo sapiens, UniProt P36888); read-out: pIC50; compound: "COC[C@H](C)Nc1ncc2c(O[C@H]3C[C@@H](O)C3(C)C)ncc([C@H]3CC[C@H](O)CC3)c2n1"
5.00 to 6.00

Form entry - test system: FLT3 (Homo sapiens, UniProt P36888); read-out: pIC50; compound: "C[C@@H](CC(F)(F)F)Nc1ncc2c(O[C@@H]3C[C@H]4CC[C@@H](C3)N4C[C@@H]3CCOC3)ncc([C@H]3CC[C@H](O)CC3)c2n1"
≥ 7.00

Form entry - test system: FLT3 (Homo sapiens, UniProt P36888); read-out: pIC50; compound: "CC(C)Nc1ncc2c(OC3CCOCC3)ncc(-c3cccc(CC#N)c3)c2n1"
5.00 to 6.00

Form entry - test system: FLT3 (Homo sapiens, UniProt P36888); read-out: pIC50; compound: "COC[C@H](C)Nc1ncc2c(OC3CCOCC3)ncc(-c3ccc(F)cc3)c2n1"
5.00 to 6.00

Form entry - test system: FLT3 (Homo sapiens, UniProt P36888); read-out: pIC50; compound: "CC(C)Nc1ncc2c(OC3CCOCC3)ncc(-c3cccc(S(=O)(=O)C(C)C)c3)c2n1"
5.00 to 6.00

Where do the numbers come from? From patent US20200291018A1.
